Would you kindly list protein stability index for each of these variants?
B1: FLOT1 (parent)
chain: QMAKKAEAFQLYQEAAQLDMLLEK

- Variants of: B1
- protocol-notes: protein stability index of a GFP-peptide fusion (GPS, HEK-293T) (PSI 1-6); higher = more stable;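 note: lentivirally expressed fusions sorted by FACS into six bins by GFP to DsRed ratio, PSI derived from sequencing read proportions per bin multiplied by bin number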
- condition-set: c terminus: a fixed tail appended

Would you kindly share the measured protein stability index for QMAKKAEAFQLYQEASQLDMLLEK [A16S] ? 3.68

Next record, please: QMAKKAENFQLYQEAAQLDMLLEK [A8N] 1.4

Next record, please: QMADKAEAFQLYQEAAQLDMLLEK [K4D] 2.94

Next record, please: QMAKKAEAFQLYQENAQLDMLLEK [A15N] 2.32

Next record, please: QMAKKAELFQLYQEAAQLDMLLEK [A8L] 2.55

Next record, please: QMAKKAEAFQLYQHAAQLDMLLEK [E14H] 1.94

Next record, please: QMAKKAEAFQLYQEAAQLDMLLPK [E23P] 3.12

Next record, please: QMAKKADAFQLYQEAAQLDMLLEK [E7D] 1.55

Next record, please: QMAKKWEAFQLYQEAAQLDMLLEK [A6W] 2.21

Next record, please: QMAKKAEAFQLYQEAAQLIMLLEK [D19I] 1.5

Next record, please: QMAKKAEAFQLYQEATQLDMLLEK [A16T] 1.85
